Experiment: Toxicokinetics of LUM001 free form, 13-week oral gavage toxicity study in rats
Type: in vivo
Details: plasma; rat, after IV administration of 3 mg/kg; read-out: AUC(0-24 h)
OBSERVATION_TYPE: AUC(0-t)
The answer should read as a number with its unit following.

Fill in: AUC(0-t) of `CCCCC1(CCCC)CS(=O)(=O)c2ccc(N(C)C)cc2[C@@H](c2ccc(OCc3ccc(C[N+]45CCN(CC4)CC5)cc3)cc2)[C@H]1O` is ___
4320 ng·h/mL

The reported numbers originate from patent US20140275090A1.
